# Test system: Fibroblast
# Test: Multiplex assay against human fibroblast
# Format: toxicity, cell-based
# Run parameters: 48 h, 1 µM, compound concentration 1 uM, replicate 2
// returns Not satisfied unless Population Mitochondria Different-Phenotype (%) is strictly below 5%, in which case Satisfied

Past entries and their recorded results:
- Compound: "Cc1c(P(=S)(c2ccccc2)c2ccccc2)n2ccccc2[n+]1C/C=C/c1ccccc1.[Br-]"
  Category label: "Not satisfied"
- Compound: "Cl.NC[C@@H]1O[C@H](C23CC4CC(CC(C4)C2)C3)Cc2c1ccc(O)c2O"
  Category label: "Satisfied"
- Compound: "CC(/C=C1\\SC(=S)N(CCCC(=O)Nc2ccc(C(=O)O)c(O)c2)C1=O)=C\\c1ccccc1"
  Category label: "Satisfied"
- Compound: "CC(C)[C@H](CO)Nc1nc(Nc2cccc(Cl)c2)c2ncn(C(C)C)c2n1 [PURVALANOLA]"
  Category label: "Satisfied"
- Compound: "CC(C)c1cc(Nc2nc(N3CCC[C@H](N)C3)ncc2C(N)=O)cc(C(C)C)n1"
  Category label: "Satisfied"
- Compound: "C=CC(=O)Nc1cc(-n2c(=O)ccc3cnc4ccc(-c5ccc(NS(C)(=O)=O)cc5)cc4c32)ccc1C"
  Category label: "Not satisfied"
- Compound: "Cc1ccc(S(=O)(=O)NC2c3ccccc3Oc3ccccc32)cc1"
  Category label: "Not satisfied"
- Compound: "CN(c1cc(C(F)(F)F)nc(OCCC(=O)O)n1)c1cccc2c1CCC2"
  Category label: "Satisfied"
- Compound: "CCCCCNC(=N)N/N=C/c1c[nH]c2ccc(OC)cc12.O=C(O)/C=C\\C(=O)O [TEGASEROD MALEATE]"
  Category label: "Satisfied"
- Compound: "CCCc1cc(C)[nH]c(=O)c1CNC(=O)c1cc(-c2ccc(N3CCN(C(C)C)CC3)nc2)cc2c1cnn2C(C)C"
  Category label: "Not satisfied"

[in] Population Mitochondria Different-Phenotype (%) under 5%? Item: Oc1cccc(-c2nc(N3CCOCC3)c3oc4ncccc4c3n2)c1 [PI-103]
[out] Not satisfied

[in] Population Mitochondria Different-Phenotype (%) under 5%? Item: CCCCN(CC)c1nc(C)nc2c1c(C)cn2-c1c(C)cc(C)cc1C.Cl
[out] Satisfied

[in] Population Mitochondria Different-Phenotype (%) under 5%? Item: CN1C(=O)[C@@H](NC(=O)c2cc3ccccc3[nH]2)N=C(c2ccccc2)c2ccccc21 [DEVAZEPIDE]
[out] Satisfied

[in] Population Mitochondria Different-Phenotype (%) under 5%? Item: C[C@@H](Oc1cc(-n2cnc3ccc(CN4CCN(C)CC4)cc32)sc1C(N)=O)c1ccccc1C(F)(F)F [GSK-461364]
[out] Not satisfied

Values from ChEMBL document CHEMBL4689842
